Below are pIC50 values for human ACC2 (Homo sapiens (Human), UniProt O00763) collected from several publications.
pIC50: −log10 of the molar value.
ENDPOINT_NAME: pIC50

Please review the following examples before continuing.
{"MOLECULE": "CN(c1nccc(N2CCC(c3ccc(CC(=O)N4CCOCC4)cc3)CC2)n1)C1CCCC1", "pIC50": 5.26}
{"MOLECULE": "CC(=O)NC(C)Cc1ccc(C#Cc2ccc(OCc3c[nH]cn3)cc2)cc1 (centres unmarked)", "pIC50": 5.59}

I: Cc1nocc1C(=O)N[C@@H](C)c1ccc(C2CN(c3ccc4c(c3)OCCO4)C2)cc1
II: CCNC(=O)C(C)c1ccc(N2CCC(c3ccc(OCC4CC4)cc3)CC2)cc1 (centres unmarked)
III: CC(=O)N[C@@H](C)c1ccc(O[C@@H]2CCN(c3ccnc(OCC(F)F)c3)C2)cc1
IV: CC(=O)NC(C)Cc1ccc(C#Cc2ccnc(N(C)C3CCC(O)CC3)n2)cc1 (centres unmarked)
Rank descending by pIC50. // respond by listing labels in the order requested III, II, I, IV
(III: 7.05, II: 6.44, I: 5.93, IV: 5.40)

A: C[C@H](NC(=O)C1CC1)c1ccc(CN2CCc3cc(OCCCF)ccc3C2)cc1
B: CCNC(=O)C(C)c1ccc(C#Cc2cnc(N3CCC4(CC4)C3)nc2)cc1 (centres unmarked)
C: CC(=O)NC1CCN(C(=O)N[C@@H](C)c2ccc(OC3CCN(c4ccc(OCC5CC5(F)F)cn4)C3)cc2)C1 (some centres unmarked)
D: CC(=O)N[C@@H](C)c1ccc(CN2CCc3cc(OCC4CC4(F)F)ccc3C2C)cc1 (some centres unmarked)
E: C[C@H](NC(=O)CO)c1ccc(CN2CC(=O)c3cc(OCC4CC4)ccc3C2)cc1
Arrange the 5 molecules by rising pIC50, starting with the smallest. // respond by listing labels in the order requested B, C, E, A, D
(B: 5.64, C: 5.84, E: 6.22, A: 6.52, D: 7.41)

1: CCOc1ccc(C#Cc2ccc(CCNC(C)=O)cc2)cn1
2: CCCOc1ccc(C#Cc2ccc(CC(C)(C)NC(=O)C3CC3)cc2)cc1
Lower value for measured pIC50? Options: 1 , 2 I would appreciate it if you answered with the label of your choice. 1
(1: 5.64, 2: 6.48)

1: CCCOc1ccc(C#Cc2ccc(CC(C)NC(C)=O)cc2)c(C(N)=O)c1 (centres unmarked)
2: CC(=O)NC(C)Cc1ccc(C#Cc2ccnc(N3CCCC(C(F)(F)F)C3)n2)cc1 (centres unmarked)
Which item exceeds the other in pIC50, 1 or 2 ? I would appreciate it if you answered with the label of your choice. 2

P: CCOc1cccc(N2CC[C@H](Oc3ccc([C@H](C)NC(C)=O)cc3)C2)c1
Q: C[C@H](NC(=O)c1ccno1)c1ccc(OC2CCN(c3cccc(C(F)(F)F)n3)C2)cc1 (some centres unmarked)
Which item exceeds the other in pIC50, P or Q ? I would appreciate it if you answered with the label of your choice. Q
(Q: 6.56, P: 6.29)

* * *

Below are pIC50 values for human ACC2 (Homo sapiens (Human), UniProt O00763) collected from several publications.
pIC50: −log10 of the molar value.
ENDPOINT_NAME: pIC50

Please review the following examples before continuing.
{"MOLECULE": "COc1cc(C#Cc2ccc(CC(C)NC(C)=O)cc2)ccc1Cl (centres unmarked)", "pIC50": 5.89}
{"MOLECULE": "C[C@H](NC(=O)c1ccno1)c1ccc(CN2CCc3cc(OCC4CC4(F)F)ccc3C2)cc1 (some centres unmarked)", "pIC50": 6.99}
{"MOLECULE": "CC(=O)NCCC[C@H]1OC[C@H](Oc2ccc(OCc3ccccc3)cc2)CO1", "pIC50": 6.40}
{"MOLECULE": "CCNC(=O)C(C)c1ccc(O[C@@H]2CCN(c3ncc(OC(C)C)cc3F)C2)cc1 (some centres unmarked)", "pIC50": 6.27}
{"MOLECULE": "CC(=O)N[C@@H](C)c1ccc(OC2CCN(c3ccc(C)cc3F)C2)cc1 (some centres unmarked)", "pIC50": 6.10}
{"MOLECULE": "CC(=O)NC(C)Cc1ccc(C#Cc2cnc(OCc3ccccc3)nc2)cc1 (centres unmarked)", "pIC50": 6.28}
{"MOLECULE": "CC(=O)NC(C)Cc1ccc(C#Cc2cccc(C(=O)NC3CCCC3)c2)cc1 (centres unmarked)", "pIC50": 5.82}
{"MOLECULE": "CC(=O)NC(C)Cc1ccc(C#Cc2cnc(NCC3CCC3)nc2)cc1 (centres unmarked)", "pIC50": 6.74}
{"MOLECULE": "CCOc1ccc(C#Cc2ccc(CCNC(=O)CC)cc2)cc1", "pIC50": 5.96}
{"MOLECULE": "CCOC1CN(c2ccc(OCC3CC3)cc2)CC1Oc1ccc([C@H](C)NC(C)=O)cc1 (some centres unmarked)", "pIC50": 5.78}

A: CCCOc1cccc(C2CCN(c3ccc(C(C)C(=O)NCC)cc3)CC2)c1 (centres unmarked)
B: CC(=O)N[C@@H](C)c1ccc(C#Cc2ccc(OC(C)C)cc2)cc1
C: CCOc1ccc(C#Cc2ccc(CC(C)NC(=O)CC)cc2)cc1 (centres unmarked)
Arrange the 3 molecules by rising pIC50, starting with the smallest. // respond by listing labels in the order requested A, B, C

I: CC(=O)N[C@@H](C)c1ccc(OC2CCN(c3ccc(F)c(F)c3)C2)cc1 (some centres unmarked)
II: CCC(C)NC(=O)c1cccc(C#Cc2ccc(CC(C)NC(C)=O)cc2)c1 (centres unmarked)
Which item exceeds the other in pIC50, I or II ? I would appreciate it if you answered with the label of your choice. I
